These data points were gathered from ChEMBL document CHEMBL1135643.

ASSAY_EXPLANATION: Minimum inhibitory concentration against Herpes simplex Virus-2(G)
Assay type: functional
CONDITIONS: Human alphaherpesvirus 2
Values of MIC strictly less than 0.6 µM map to 1, and values of at least 0.6 µM map to 0.

Prompt: Does the reported MIC of the following compound sit strictly below 0.6 µM? CC(=O)Oc1ccc(-c2cn3c(O)c4ncn(COC(CO)CO)c4nc3n2)cc1
Response: 0

Prompt: Does the reported MIC of the following compound sit strictly below 0.6 µM? CC(C)C(=O)Oc1ccc(-c2cn3c(O)c4ncn(COCCO)c4nc3n2)cc1
Response: 0

Prompt: Does the reported MIC of the following compound sit strictly below 0.6 µM? CC(C)C(=O)Oc1ccc(-c2cn3c(O)c4ncn(COC(CO)CO)c4nc3n2)cc1
Response: 1

Prompt: Does the reported MIC of the following compound sit strictly below 0.6 µM? O=C(Nc1ccc(-c2cn3c(O)c4ncn(COCCO)c4nc3n2)cc1)Oc1ccccc1
Response: 0

Prompt: Does the reported MIC of the following compound sit strictly below 0.6 µM? O=C(Oc1ccccc1)Oc1ccc(-c2cn3c(O)c4ncn(COC(CO)CO)c4nc3n2)cc1
Response: 1

====

ASSAY_EXPLANATION: Minimum inhibitory concentration against Herpes simplex Virus-2(G)
Assay type: functional
CONDITIONS: Human alphaherpesvirus 2
EXPERIMENTAL_ENDPOINT: MIC (µM)
Write the value in µM as a bare number.

1. NC(=O)Nc1ccc(-c2cn3c(O)c4ncn(COCCO)c4nc3n2)cc1 | 15
2. CC(C)C(=O)Nc1ccc(-c2cn3c(O)c4ncn(COCCO)c4nc3n2)cc1 | 4.4

Prompt: I am curious: what MIC value has been reported for Nc1nc2c(ncn2COCCO)c(=O)[nH]1 ?
Response: 0.242

Prompt: I am curious: what MIC value has been reported for Nc1nc2c(ncn2COC(CO)CO)c(=O)[nH]1 ?
Response: 0.06

Prompt: I am curious: what MIC value has been reported for OCC(CO)OCn1cnc2c(O)n3cc(-c4ccc(O)cc4)nc3nc21 ?
Response: 0.96

Prompt: I am curious: what MIC value has been reported for OCCOCn1cnc2c(O)n3cc(-c4ccc(O)cc4)nc3nc21 ?
Response: 0.675

Prompt: I am curious: what MIC value has been reported for CC(=O)Nc1ccc(-c2cn3c(O)c4ncn(COCCO)c4nc3n2)cc1 ?
Response: 8.4

Prompt: I am curious: what MIC value has been reported for O=C(Oc1ccccc1)Oc1ccc(-c2cn3c(O)c4ncn(COCCO)c4nc3n2)cc1 ?
Response: 0.83
